experimental readout: melting point

Answered cases to consult:
OCC(O)Cc1nccn1CCCc1cccc(OCc2coc(/C=C/c3ccc(F)cc3F)n2)c1 (stereo not drawn) [Compound B27]; 92 to 94 °C
OCCc1nccn1CCCCc1ccc(OCc2coc(/C=C/c3ccc(Br)cc3)n2)cc1 [Compound B16]; 149 to 150 °C

Please look up its melting point: Cc1cccc(/C=C/c2nc(COc3ccc(CCCCn4ccnc4CCO)cc3)co2)c1 [Compound B11]
109 to 111 °C

Data request, read-out melting point, for OCCc1nccn1CCCc1ccc(OCc2coc(/C=C/c3ccc(F)cc3F)n2)cc1 [Compound B20]
94 to 96 °C

Which value of melting point has been reported for Fc1ccc(/C=C/c2nc(COc3cccc(CCCn4ccnn4)c3)co2)c(F)c1 [Compound B8] in the records?
89 to 90 °C

Data request, read-out melting point, for OCC(O)Cc1nccn1CCCCc1ccc(OCc2coc(/C=C/c3ccc(F)cc3)n2)cc1 (stereo not drawn) [Compound B23]
114 to 116 °C

Which melting point value is on record for OCCc1nccn1CCCCc1ccc(OCc2coc(/C=C/c3ccc(F)cc3F)n2)cc1 [Compound B19] ?
93 to 95 °C

Any idea what its melting point is? The compound is Cc1ccc(/C=C/c2nc(COc3ccc(CCCCn4ccnc4CCO)cc3)co2)cc1 [Compound B10]
108 to 109 °C

Give its melting point value. Item: OCCc1nccn1CCCCc1ccc(OCc2coc(/C=C/c3ccc(F)cc3)n2)cc1 [Compound B14]
130 to 132 °C

// lookup melting point for FC(F)(F)c1ccc(/C=C/c2nc(COc3ccc(CCCn4ccnn4)cc3)co2)cc1 [Compound B5]
157 to 158 °C

// query melting point value for entry OCC(O)Cc1nccn1CCCCc1ccc(OCc2coc(/C=C/c3ccc(F)cc3F)n2)cc1 (stereo not drawn) [Compound B26]
126 to 128 °C

---

- Tested on: Akt
- procedure summary: cells
- test parameters: Homo sapiens, BT-474, 2 h, read-out: inhibition of activation of Akt (IC50 value)
experimental readout: pIC50
// field semantics: pIC50 = negative decimal log of concentration (mol/L)

Find the recorded pIC50 belonging to FC(F)(F)c1ccc(/C=C/c2nc(COc3ccc(CCCCn4ccnn4)cc3)co2)cc1 and report it.
8.72

---

experimental readout: melting point

OCCc1nccn1CCCCc1ccc(OCc2coc(/C=C/c3ccc(Cl)cc3)n2)cc1 [Compound B15]; 127 to 128 °C

Which melting point reading was recorded for the compound Cc1ccccc1/C=C/c1nc(COc2ccc(CCCCn3ccnc3CCO)cc2)co1 [Compound B12] ?
91 to 93 °C

Reported melting point for Fc1ccc(/C=C/c2nc(COc3ccc(CCCCn4ccnn4)cc3)co2)c(F)c1 [Compound B7] : what is it?
115 to 117 °C

Would you mind telling me what melting point value was observed for FC(F)(F)c1ccc(/C=C/c2nc(COc3cccc(CCCn4ccnn4)c3)co2)cc1 [Compound B6] ?
115 to 116 °C

---

Reported melting point by item:

Worked cases, melting point given:
OCC(O)Cc1nccn1CCCCc1ccc(OCc2coc(/C=C/c3c(F)cccc3F)n2)cc1 (stereo not shown); 123 to 125 °C
CCc1ccc(/C=C/c2nc(COc3ccc(CCCCn4ccnc4CCO)cc3)co2)cc1; 94 to 95 °C
OCC(O)Cc1nccn1CCCc1cccc(OCc2coc(/C=C/c3ccc(C(F)(F)F)cc3)n2)c1 (stereo not shown); 102 to 104 °C

--- query ---
Any idea what its melting point is? The compound is OCC(O)Cc1nccn1CCCCc1ccc(OCc2coc(/C=C/c3ccc(C(F)(F)F)cc3)n2)cc1 (stereo not shown)
142 to 143 °C

FYI, the data here is from patent US20040138160A1.
